target.entity: STK3 (human)
assay.summary: radiometric filter-binding kinase assay, Kinase HotSpot
applied.conditions: compound 0.5 µM; ATP 10 µM
residual activity overview
Give your result in % as a bare value.

Sample records with residual activity:
{"smiles": "COc1ccc2c(c[n+](C)c3c4cc5c(cc4ccc23)OCO5)c1OC", "residual activity [%]": 102}
{"smiles": "COc1ccc(COc2ccc(Cc3cnc(N)nc3N)cc2OC)cc1", "residual activity [%]": 98.4}
{"smiles": "CCN(CC)CCNC(=O)c1c(C)[nH]c(/C=C2\\C(=O)Nc3ccc(Cl)cc32)c1C", "residual activity [%]": 16.9}

In the following, a different compound is considered.
Exercise: What value of measured residual activity is listed for Nc1ccc2ncnc(NCCc3ccc(Oc4ccccc4)cc3)c2c1 ?
Key: 105
